Target: Guanidinoacetate N-methyltransferase (Homo sapiens) (UniProt Q14353)
Test: Confirmatory Screen for Target Class Profiling of Small Molecule Inhibitors of Methyltransferases (AID 1745852); note: % is set by controls: 0 for no effect and ±100 for the full control effect
Details: MTase-Glo luminescence, SAH detection, recombinant enzyme; at 57.3 µM (top of the series) unless noted
assayEndpoint: activity change, negative = inhibition (%)

molecule	resultUnits	recordedResult
CCCCOC(=O)c1ccnc2cc(C(OCCN3CCCCC3)c3ccccc3Cl)sc12 (configuration not stated)	%	6.41
CCCN(CCC)[C@@H]1CCc2ccc3[nH]c(C#N)cc3c2C1	%	0
CCOC(=O)c1ccnc2cc(C(OCCN3CCCCC3)c3ccccc3Cl)sc12 (configuration not stated)	%	9.58
O=C1Nc2ccc3ncsc3c2/C1=C/c1cnc[nH]1	%	-5.42
Fc1cc(F)c2c(c1)C1C=CCC1C(c1cccnc1)N2 (configuration not stated)	%	0.0443
C#C[C@]1(O)CC[C@H]2[C@@H]3CC[C@H]4Cc5nc6nc7ccccc7n6cc5C[C@]4(C)[C@H]3CC[C@@]21C	%	-2.81
N#Cc1ccc(N2CCN(C(=O)COc3ccc4[nH]cc(CCN)c4c3)CC2)cc1	%	0.371
CN(C)c1cc2c(cc1Sc1nc3c(N)nccc3n1CCNCC(C)(C)C)OCO2	%	-4.13
Cc1[nH]c2ccc(Cl)cc2c1CCN(C)C	%	-1.82
Clc1ccc([C@]23CNC[C@H]2C3)cc1Cl	%	2.99

----------
Test system: HB3
Experiment: qHTS profiling for inhibitors of Plasmodium falciparum proliferation (AID 504749); note: nearly all actives have a fitted effect of over 60% in size; note: potency is the fitted concentration of half-maximal effect
Details: P. falciparum in erythrocytes, SYBR Green DNA, 72 h; series mostly up to 28.7 µM
Inconclusive results are not listed. Activity calls are given as the source filed them. The call rests on the fitted dose curve; in most records, active means well fitted inhibition curve with a large enough effect; inconclusive means small, poorly fitted or top-dose-only effect; inactive means flat fitted curve, though single readings scatter.

molecule	system	Potency
CCN1C[C@]2(COC)[C@H](O)C[C@H](OC)[C@]34C1C([C@H](OC)[C@H]23)[C@]1(OC(C)=O)C2[C@@H](OC(=O)c3ccccc3)C(O)(C[C@H]24)[C@@H](OC)[C@@H]1O	HB3	inactive
C[N+](C)(C)CC(=O)[O-]	HB3	inactive
O=C(O)c1ccccc1-c1c2cc(Br)c(=O)cc-2oc2[c]([Hg])c(O)c(Br)cc12	HB3	inactive
CO[C@H]1[C@@H](O)CC(OC2[C@@H](O)CC(OC3[C@@H](O)C[C@H](OC4CC[C@@]5(C)C(CCC6C5CC(O)[C@]5(C)[C@H](C7=CC(=O)OC7)CCC65O)C4)O[C@@H]3C)O[C@@H]2C)O[C@@H]1C (some centres not stated)	HB3	inactive
CC(C)[C@@]1(NC(=O)[C@H]2CC3c4cccc5[nH]cc(c45)C[C@H]3N(C)C2)O[C@@]2(O)C3CCCN3C(=O)[C@@H](Cc3ccccc3)N2C1=O (some centres not stated)	HB3	2 µM (active)
CCCCCCCCCC[N+](C)(C)CCCCCCCCCC	HB3	7.94 µM (active)
Oc1cc[c]([Hg][Cl])cc1	HB3	11.2 µM (active)

----------
System: KB-3-1
Experiment: Cytotoxic Profiling of Annotated Libraries Using Quantitative High-Throughput Screening (AID 1296008); note: % is set by controls: 0 for no effect and ±100 for the full control effect; nearly all actives have a fitted effect of over 60% in size
Conditions: Five cell lines viability, CellTiter-Glo ATP luminescence, 48-72 h; stronger effect = lower value
Inconclusive results are not listed.
assayEndpoint: max response (%)

compound	resultUnits	recordedResult
CN1CN(c2ccccc2)C2(CCN(CCCC(=O)c3ccc(F)cc3)CC2)C1=O	%	-4.39
C=CCN1CC[C@]23c4c5ccc(O)c4O[C@H]2[C@@H](O)CC[C@@]3(O)[C@H]1C5	%	3.34
CN[C@]1(c2ccccc2Cl)CCCCC1=O	%	-15.2
CCOC(=O)c1ccc(-c2ccc(OC(=O)N(C)Cc3cccc(-c4ccncc4)c3)cc2)cc1	%	1.19
CCOc1cc(C=O)ccc1O	%	-13
COC(=O)[C@H]1[C@@H](OC(=O)c2ccccc2)C[C@@H]2CC[C@H]1N2C	%	1.68
Clc1ccc([C@]23CNC[C@H]2C3)cc1Cl	%	-2.06
CC(=O)NCCCOc1ccc(C(=O)N2CCC(N3C(=O)CCc4ccccc43)CC2)cc1	%	5.83
C/C=C(\C)C(=O)OC1C2C3(C)CCC(OC4CC(OC)C(OC5OC(C)C(O)C(OC)C5O)C(C)O4)CC3CCC23OC32CCC(C(C)=O)C2(C)C1OC(=O)/C(C)=C/C (stereo not given)	%	-21.8
c1cncc(OC[C@@H]2CCN2)c1	%	-3.57
CC(=O)C1CCC2C3CCC4C[C@@H](O)CCC4(C)C3CCC12C (stereo not given in full)	%	0.129
CCC1CN2CCC3(C(=O)Nc4cccc(O)c43)C2CC1/C(=C/OC)C(=O)OC (stereo not given)	%	-16.6
C=CCN1CCC2(C)c3cc(O)ccc3C[C@H]1[C@H]2C	%	1.41
COc1ccc2c3c4n(c2c1)[C@@H](C=C(C)C)OOC(C)(C)C[C@@H]4N1C(=O)[C@@H]2CCCN2C(=O)[C@]1(O)[C@H]3OCC=C(C)C	%	8.3
CCCCCn1cc(C(=O)c2cccc3ccccc23)c2ccccc21	%	-15.1
CNC(C)CC1CCCCC1 (stereo not given)	%	-19.8
NNC(=O)c1nn(Cc2ccc(Cl)cc2Cl)c2ccccc12	%	-14.6
O=C(N1CCCCC1Cc1ccccc1)n1cc(-c2ccc(-c3ccccc3)cc2)nn1 (stereo not given)	%	-19
N#Cc1ccc([C@H]2CCCC[C@H]2O)cc1C(F)(F)F	%	-5.63
Cc1cccc(NC(=O)N[C@H]2CN(C)c3ccccc3C(c3ccccc3)=N2)c1	%	6.39
COC(=O)[C@]12CCCC(C)(C)C1CCc1cc(C(C)C)c(O)c(O)c12 (stereo not given in full)	%	-12.9
COC[C@]12CN(C)C3C4[C@H](OC)[C@H]1C3(C(OC)C[C@H]2O)[C@H]1C[C@@]2(O)[C@H](OC(=O)c3ccccc3)[C@@H]1[C@]4(O)[C@@H](O)[C@@H]2OC (stereo not given in full)	%	-0.453
Cc1ccc2c(c1)[C@H]1CN(C)CC[C@H]1N2C(=O)CSc1nnnn1-c1ccc(Cl)cc1	%	-5.2
C=CCC1([C@@H](C)CCC)C(=O)NC(=O)NC1=O	%	-4.55
N#Cc1ccccc1-c1cc(-c2ccccn2)cn(-c2ccccc2)c1=O	%	-4.86
CCOC(=O)C1(c2ccccc2)CCCN(C)CC1 (stereo not given)	%	-5.26
O=C(OC[C@H]1O[C@@H](Oc2ccc(O)cc2CO)[C@H](O)[C@@H](O)[C@@H]1O)c1ccccc1	%	4.17
Cc1[nH]c2ccc(Cl)cc2c1CCN(C)C	%	3.8
C[C@H]1[C@H]2Cc3ccc(O)cc3[C@]1(C)CCN2CCc1ccccc1	%	-3.9
CCOc1ccc(Oc2ccc(OCc3cc(F)ccc3F)cc2)c(N)c1	%	-0.382
Nc1ncnc2c1ncn2[C@@H]1O[C@@H]2COP(O)(=S)O[C@H]2[C@H]1O (stereo not given in full)	%	-0.196
COc1ccsc1CNCC[C@@]1(c2ccccn2)CCOC2(CCCC2)C1	%	9.07
C/C=C(\CC)C(=O)NC(N)=O	%	-1.21
CC(C)=CCN1CC[C@]2(C)c3cc(O)ccc3C[C@H]1[C@H]2C	%	-17.1
C[C@H](Nc1ncnc2nc[nH]c12)c1nc2ccc(F)cc2c(=O)n1-c1ccccc1	%	-3.18
NC(=O)[C@@H](CC1CC1)[C@@H](CCC(F)(F)F)C(=O)N[C@H]1N=C(c2ccccc2)c2cccc(F)c2NC1=O	%	4.24
CNC(=O)c1cc(C#N)cc(C)c1NC(=O)c1cc(Br)nn1-c1ncccc1Cl	%	-25.7
COc1ccc(CC2C(=O)NC(C)C(=O)N(C)C3Cc4ccc(cc4)Oc4cc(ccc4OC4OC(CO)C(O)C(O)C4O)CC(C(=O)NC(C)C(=O)NC(CCC(=O)O)C(=O)N2C)N(C)C3=O)cc1 (stereo not given)	%	-29.6
O=C(N[C@H]1CN2CCC1CC2)c1cc2cccc(Cl)c2s1	%	2.28
C/C=C1/CN2CC[C@]34C(=Nc5ccccc53)[C@@H]2C[C@@H]1[C@H]4C(=O)OC	%	-1.68

----------
Experiment: Cell Viability - LYMP2-018 (AID 985);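 note: compound exposure lasted 24 hr at 37 °C; plate controls were DMSO only for no effect and tetraoctylammonium bromide at 92 µM for full effect; nearly all actives have a fitted effect of over 50% in size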
Settings: LYMP2-018 lymphoblastoid cells, viability (qHTS); series mostly up to 92.2 µM
Results filed as inconclusive are left out. Calls of active or inactive are those of the source. Calls come from the whole dose curve; as a rule, active = well fitted cell-killing curve with a large enough effect; inconclusive = small, poorly fitted or top-dose-only effect; inactive = flat fitted curve, though single readings scatter.
assayEndpoint: outcome

                 compoundstring  assayendpoint  recordedresult
0                   O=Cc1ccccc1        outcome        inactive
1             CCOc1cc(C=O)ccc1O        outcome        inactive
2                    Cc1ccccc1O        outcome        inactive
3        COC(=O)c1ccccc1C(=O)OC        outcome        inactive
4                   Oc1ccccc1Cl        outcome        inactive
5     c1ccc(Nc2ccc3ccccc3c2)cc1        outcome        inactive
6             CCOC(=O)c1ccccc1N        outcome        inactive
7  c1ccc2c(c1)-c1cccc3cccc-2c13        outcome        inactive
